src = patent US11389447B2

assayNotes: Kinetic study: plasma kinetics of TMC278 after single IM or SC injection of a nanosuspension
Format: in vivo, male beagle dogs
recordedConditions: male, beagle, dog, plasma, sc, 5 mg/kg, plasma concentration of TMC278, single SC 5 mg/kg TMC278 nanosuspension, mean of 2 dogs, 1368 h (d57)
quantityName: concentration at 1368 h (ng/mL)
Give a bare numeral; the unit ng/mL is implied.

So, Cc1cc(C=CC#N)cc(C)c1Nc1ccnc(Nc2ccc(C#N)cc2)n1 [TMC278] ? Its concentration at 1368 h was 3.65

---

assayNotes: Kinetic study: plasma kinetics of TMC278 after single IM or SC injection of a nanosuspension
Assay type: in vivo, male beagle dogs
recordedConditions: male, beagle, dog, plasma, sc, 5 mg/kg, plasma concentration of TMC278, single SC 5 mg/kg TMC278 nanosuspension, dog 19349, 480 h (d20)
quantityName: concentration at 480 h (ng/mL)
Give a bare numeral; the unit ng/mL is implied.

So, "Cc1cc(C=CC#N)cc(C)c1Nc1ccnc(Nc2ccc(C#N)cc2)n1" ? Its concentration at 480 h was 21.2

---

assayNotes: Kinetic study: plasma kinetics of TMC278 after single IM or SC injection of a nanosuspension
Type: in vivo, male beagle dogs
recordedConditions: male, beagle, dog, plasma, sc, 5 mg/kg, single SC 5 mg/kg TMC278 nanosuspension, dog 19129; read-out: Tmax
quantityName: Tmax
The answer should read as a number with its unit following.

So, Cc1cc(C=CC#N)cc(C)c1Nc1ccnc(Nc2ccc(C#N)cc2)n1 [TMC278] ? Its Tmax was 48 h

---

assayNotes: Kinetic study: plasma kinetics of TMC278 after single IM or SC injection of a nanosuspension
Assay type: in vivo, male beagle dogs
recordedConditions: male, beagle, dog, plasma, sc, 5 mg/kg, plasma concentration of TMC278, single SC 5 mg/kg TMC278 nanosuspension, mean of 2 dogs, 72 h (d3)
quantityName: concentration at 72 h (ng/mL)
Give a bare numeral; the unit ng/mL is implied.

So, "Cc1cc(C=CC#N)cc(C)c1Nc1ccnc(Nc2ccc(C#N)cc2)n1" ? Its concentration at 72 h was 28.4

---

assayNotes: Kinetic study: plasma kinetics of TMC278 after single IM or SC injection of a nanosuspension
Assay type: in vivo, male beagle dogs
recordedConditions: male, beagle, dog, plasma, sc, 5 mg/kg, single SC 5 mg/kg TMC278 nanosuspension, dog 19349; read-out: Tmax
quantityName: Tmax (h)
Give a bare numeral; the unit h is implied.

So, "Cc1cc(C=CC#N)cc(C)c1Nc1ccnc(Nc2ccc(C#N)cc2)n1" ? Its Tmax was 240

---

assayNotes: Kinetic study: plasma kinetics of TMC278 after single IM or SC injection of a nanosuspension
Format: in vivo, male beagle dogs
recordedConditions: male, beagle, dog, plasma, sc, 5 mg/kg, plasma concentration of TMC278, single SC 5 mg/kg TMC278 nanosuspension, dog 19129, 3 h
quantityName: concentration at 3 h (ng/mL)
Give a bare numeral; the unit ng/mL is implied.

So, "Cc1cc(C=CC#N)cc(C)c1Nc1ccnc(Nc2ccc(C#N)cc2)n1" ? Its concentration at 3 h was 7.96

---

assayNotes: Kinetic study: plasma kinetics of TMC278 after single IM or SC injection of a nanosuspension
Type: in vivo, male beagle dogs
recordedConditions: male, beagle, dog, plasma, sc, 5 mg/kg, plasma concentration of TMC278, single SC 5 mg/kg TMC278 nanosuspension, dog 19349, 648 h (d27)
quantityName: concentration at 648 h (ng/mL)
Give a bare numeral; the unit ng/mL is implied.

So, "Cc1cc(C=CC#N)cc(C)c1Nc1ccnc(Nc2ccc(C#N)cc2)n1" ? Its concentration at 648 h was 11

---

assayNotes: Kinetic study: plasma kinetics of TMC278 after single IM or SC injection of a nanosuspension
Assay type: in vivo, male beagle dogs
recordedConditions: male, beagle, dog, plasma, im, 5 mg/kg, single IM 5 mg/kg TMC278 nanosuspension, mean of 2 dogs; read-out: Cmax
quantityName: Cmax (ng/mL)
Give a bare numeral; the unit ng/mL is implied.

So, Cc1cc(C=CC#N)cc(C)c1Nc1ccnc(Nc2ccc(C#N)cc2)n1 [TMC278] ? Its Cmax was 173

---

assayNotes: Kinetic study: plasma kinetics of TMC278 after single IM or SC injection of a nanosuspension
Type: in vivo, male beagle dogs
recordedConditions: male, beagle, dog, plasma, intramuscular, 5 mg/kg, plasma concentration of TMC278, single IM 5 mg/kg TMC278 nanosuspension, mean of 2 dogs, 864 h (d36)
quantityName: concentration at 864 h (ng/mL)
Give a bare numeral; the unit ng/mL is implied.

So, "Cc1cc(C=CC#N)cc(C)c1Nc1ccnc(Nc2ccc(C#N)cc2)n1" ? Its concentration at 864 h was 6.89

---

assayNotes: Kinetic study: plasma kinetics of TMC278 after single IM or SC injection of a nanosuspension
Assay type: in vivo, male beagle dogs
recordedConditions: male, beagle, dog, plasma, intramuscular, 5 mg/kg, plasma concentration of TMC278, single IM 5 mg/kg TMC278 nanosuspension, mean of 2 dogs, 1 h
quantityName: concentration at 1 h (ng/mL)
Give a bare numeral; the unit ng/mL is implied.

So, "Cc1cc(C=CC#N)cc(C)c1Nc1ccnc(Nc2ccc(C#N)cc2)n1" ? Its concentration at 1 h was 96.3

---

assayNotes: Kinetic study: plasma kinetics of TMC278 after single IM or SC injection of a nanosuspension
Type: in vivo, male beagle dogs
recordedConditions: male, beagle, dog, plasma, sc, 5 mg/kg, plasma concentration of TMC278, single SC 5 mg/kg TMC278 nanosuspension, dog 19349, 1536 h (d64)
quantityName: concentration at 1536 h (ng/mL)
Give a bare numeral; the unit ng/mL is implied.

So, Cc1cc(C=CC#N)cc(C)c1Nc1ccnc(Nc2ccc(C#N)cc2)n1 [TMC278] ? Its concentration at 1536 h was 2.05

---

assayNotes: Kinetic study: plasma kinetics of TMC278 after single IM or SC injection of a nanosuspension
Type: in vivo, male beagle dogs
recordedConditions: male, beagle, dog, plasma, sc, 5 mg/kg, plasma concentration of TMC278, single SC 5 mg/kg TMC278 nanosuspension, dog 19129, 1536 h (d64)
quantityName: concentration at 1536 h (ng/mL)
Give a bare numeral; the unit ng/mL is implied.

So, "Cc1cc(C=CC#N)cc(C)c1Nc1ccnc(Nc2ccc(C#N)cc2)n1" ? Its concentration at 1536 h was 6.45

---

assayNotes: Kinetic study: plasma kinetics of TMC278 after single IM or SC injection of a nanosuspension
Format: in vivo, male beagle dogs
recordedConditions: male, beagle, dog, plasma, sc, 5 mg/kg, plasma concentration of TMC278, single SC 5 mg/kg TMC278 nanosuspension, dog 19129, 2208 h (d92)
quantityName: concentration at 2208 h (ng/mL)
Give a bare numeral; the unit ng/mL is implied.

So, "Cc1cc(C=CC#N)cc(C)c1Nc1ccnc(Nc2ccc(C#N)cc2)n1" ? Its concentration at 2208 h was 3.05

---

assayNotes: Kinetic study: plasma kinetics of TMC278 after single IM or SC injection of a nanosuspension
Assay type: in vivo, male beagle dogs
recordedConditions: male, beagle, dog, plasma, sc, 5 mg/kg, plasma concentration of TMC278, single SC 5 mg/kg TMC278 nanosuspension, dog 19349, 864 h (d36)
quantityName: concentration at 864 h

So, "Cc1cc(C=CC#N)cc(C)c1Nc1ccnc(Nc2ccc(C#N)cc2)n1" ? Its concentration at 864 h was 5.49 ng/mL

---

assayNotes: Kinetic study: plasma kinetics of TMC278 after single IM or SC injection of a nanosuspension
Assay type: in vivo, male beagle dogs
recordedConditions: male, beagle, dog, plasma, im, 5 mg/kg, single IM 5 mg/kg TMC278 nanosuspension, mean of 2 dogs; read-out: Tmax
quantityName: Tmax (h)
Give a bare numeral; the unit h is implied.

So, "Cc1cc(C=CC#N)cc(C)c1Nc1ccnc(Nc2ccc(C#N)cc2)n1" ? Its Tmax was 24

---

assayNotes: Kinetic study: plasma kinetics of TMC278 after single IM or SC injection of a nanosuspension
Format: in vivo, male beagle dogs
recordedConditions: male, beagle, dog, plasma, intramuscular, 5 mg/kg, plasma concentration of TMC278, single IM 5 mg/kg TMC278 nanosuspension, dog 18186, 312 h (d13)
quantityName: concentration at 312 h
The answer should read as a number with its unit following.

So, "Cc1cc(C=CC#N)cc(C)c1Nc1ccnc(Nc2ccc(C#N)cc2)n1" ? Its concentration at 312 h was 38 ng/mL

---

assayNotes: Kinetic study: plasma kinetics of TMC278 after single IM or SC injection of a nanosuspension;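 also: healthy male beagle dogs injected in both biceps femoris muscles (IM) or both thoracal sides (SC), total volume 0.2 mL/kg, drug measured in plasma from blood samples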
Type: in vivo, male beagle dogs
recordedConditions: male, beagle, dog, plasma, intramuscular, 5 mg/kg, plasma concentration of TMC278, single IM 5 mg/kg TMC278 nanosuspension, dog 18186, 2208 h (d92)
quantityName: concentration at 2208 h (ng/mL)
Give a bare numeral; the unit ng/mL is implied.

So, Cc1cc(C=CC#N)cc(C)c1Nc1ccnc(Nc2ccc(C#N)cc2)n1 [TMC278] ? Its concentration at 2208 h was 1.25
